Entry source: patent US20030012820A1

- Procedure Summary: Particle size distribution by sieve analysis
- Format: physicochemical
- Experimental Context: US Mesh 20 (850 μm)
Property: % CR (cumulative amount retained) (%)

# Compound, Endpoint Result
rows = [
    ("COc1ccccc1OCC(O)CO (single isomer, unassigned) [GP-C, guaifenesin]", 0),
    ("COc1ccccc1OCC(O)CO (single isomer, unassigned) [GP-D, guaifenesin]", 0),
    ("COc1ccccc1OCC(O)CO (single isomer, unassigned) [GP-A, guaifenesin]", 0),
    ("COc1ccccc1OCC(O)CO (single isomer, unassigned) [GP-B, guaifenesin]", 0),
]

###

- Procedure Summary: Particle size distribution by sieve analysis
- Format: physicochemical
- Experimental Context: US Mesh 20 (850 μm)
- Description: USP grade guaifenesin powders GP-A, GP-B, GP-C and GP-D having the respective particle size distributions set forth below, were used in the examples. […] The particle size distribution, bulk density, moisture content and flow properties were measured for each of the compositions of Examples 1-10 and for Comparison Examples C1-C4. […] Particle size distribution was measured by sieve analysis using screens of the indicated mesh sizes. Bulk density was measured using a VanKel cylinder. […]
Property: % R (amount retained on screen) (%)

# Compound, Property, Endpoint Unit, Endpoint Result
records = [
    ("COc1ccccc1OCC(O)CO (single isomer, unassigned) [GP-B, guaifenesin]", "% R (amount retained on screen)", "%", 0),
    ("COc1ccccc1OCC(O)CO (single isomer, unassigned) [GP-A, guaifenesin]", "% R (amount retained on screen)", "%", 0),
    ("COc1ccccc1OCC(O)CO (single isomer, unassigned) [GP-D, guaifenesin]", "% R (amount retained on screen)", "%", 0),
    ("COc1ccccc1OCC(O)CO (single isomer, unassigned) [GP-C, guaifenesin]", "% R (amount retained on screen)", "%", 0),
]

###

- Procedure Summary: Particle size distribution by sieve analysis
- Assay type: physicochemical
- Experimental Context: US Mesh 200 (75 μm)
Property: % R (amount retained on screen) (%)

# Molecule, Property, Endpoint Unit, Endpoint Result
measured = [
    ("COc1ccccc1OCC(O)CO (single isomer, unassigned) [GP-C, guaifenesin]", "% R (amount retained on screen)", "%", 7.2),
]

a. COc1ccccc1OCC(O)CO (single isomer, unassigned) [GP-B, guaifenesin]
b. COc1ccccc1OCC(O)CO (single isomer, unassigned) [GP-D, guaifenesin]
c. COc1ccccc1OCC(O)CO (single isomer, unassigned) [GP-A, guaifenesin]
Qu. Arrange these 3 molecules in increasing order of % R (amount retained on screen). The response must list the labels following the requested ordering.
Ans. a, c, b

###

- Procedure Summary: Particle size distribution by sieve analysis
- Type: physicochemical
- Experimental Context: US Mesh 80 (180 μm)
- Experimental: USP grade guaifenesin powders GP-A, GP-B, GP-C and GP-D having the respective particle size distributions set forth below, were used in the examples. […] The particle size distribution, bulk density, moisture content and flow properties were measured for each of the compositions of Examples 1-10 and for Comparison Examples C1-C4. […] Particle size distribution was measured by sieve analysis using screens of the indicated mesh sizes. Bulk density was measured using a VanKel cylinder. […]
Property: % CR (cumulative amount retained) (%)

# Compound, % CR (cumulative amount retained) (%)
data = [
    ("COc1ccccc1OCC(O)CO (single isomer, unassigned) [GP-B, guaifenesin]", 2.4),
    ("COc1ccccc1OCC(O)CO (single isomer, unassigned) [GP-D, guaifenesin]", 3.2),
    ("COc1ccccc1OCC(O)CO (single isomer, unassigned) [GP-A, guaifenesin]", 3.2),
    ("COc1ccccc1OCC(O)CO (single isomer, unassigned) [GP-C, guaifenesin]", 3.2),
]

###

- Procedure Summary: Particle size distribution by sieve analysis
- Format: physicochemical
- Experimental Context: US Mesh 200 (75 μm)
Property: % CR (cumulative amount retained) (%)

Reference set (2 entries):
# Compound, Endpoint Unit, % CR (cumulative amount retained)
records = [
    ("COc1ccccc1OCC(O)CO (single isomer, unassigned) [GP-A, guaifenesin]", "%", 38.4),
    ("COc1ccccc1OCC(O)CO (single isomer, unassigned) [GP-B, guaifenesin]", "%", 11.2),
]

I. COc1ccccc1OCC(O)CO (single isomer, unassigned) [GP-C, guaifenesin]
II. COc1ccccc1OCC(O)CO (single isomer, unassigned) [GP-D, guaifenesin]
Qu. // select label with min value of measured % CR (cumulative amount retained) from [ I , II ] Returns: label corresponding to the selected item.
Ans. I

###

- Procedure Summary: Particle size distribution by sieve analysis
- Assay type: physicochemical
- Experimental Context: US Mesh 100 (150 μm)
Property: % CR (cumulative amount retained) (%)

In the examples that follow, each entry is paired with its recorded % CR (cumulative amount retained).
# Molecule, Property, Endpoint Result
data = [
    ("COc1ccccc1OCC(O)CO (single isomer, unassigned) [GP-A, guaifenesin]", "% CR (cumulative amount retained)", 7.6),
    ("COc1ccccc1OCC(O)CO (single isomer, unassigned) [GP-B, guaifenesin]", "% CR (cumulative amount retained)", 3.2),
]

I. COc1ccccc1OCC(O)CO (single isomer, unassigned) [GP-D, guaifenesin]
II. COc1ccccc1OCC(O)CO (single isomer, unassigned) [GP-C, guaifenesin]
Qu. Identify the entry with the larger % CR (cumulative amount retained). Options: I and II I would appreciate it if you answered with the label of your choice.
Ans. I
(I: 9.6%, II: 4.0%)

###

- Procedure Summary: Particle size distribution by sieve analysis
- Assay type: physicochemical
- Experimental Context: US Mesh 100 (150 μm)
- Description: USP grade guaifenesin powders GP-A, GP-B, GP-C and GP-D having the respective particle size distributions set forth below, were used in the examples. […] The particle size distribution, bulk density, moisture content and flow properties were measured for each of the compositions of Examples 1-10 and for Comparison Examples C1-C4. […] Particle size distribution was measured by sieve analysis using screens of the indicated mesh sizes. Bulk density was measured using a VanKel cylinder. […]
Property: % R (amount retained on screen) (%)

# Compound, % R (amount retained on screen) / %
rows = [
    ("COc1ccccc1OCC(O)CO (single isomer, unassigned) [GP-C, guaifenesin]", 0.8),
]

1. COc1ccccc1OCC(O)CO (single isomer, unassigned) [GP-B, guaifenesin]
2. COc1ccccc1OCC(O)CO (single isomer, unassigned) [GP-D, guaifenesin]
3. COc1ccccc1OCC(O)CO (single isomer, unassigned) [GP-A, guaifenesin]
Qu. Please list these in order of increasing % R (amount retained on screen). Thank you! List the labels according to the requested ordering.
Ans. 1, 3, 2
(1: 0.8%, 3: 4.4%, 2: 6.4%)

###

- Procedure Summary: Particle size distribution by sieve analysis
- Type: physicochemical
- Experimental Context: US Mesh 325 (45 μm)
Property: % R (amount retained on screen) (%)

# Compound, Endpoint Result
measured = [
    ("COc1ccccc1OCC(O)CO (single isomer, unassigned) [GP-C, guaifenesin]", 66.4),
]

P. COc1ccccc1OCC(O)CO (single isomer, unassigned) [GP-D, guaifenesin]
Q. COc1ccccc1OCC(O)CO (single isomer, unassigned) [GP-B, guaifenesin]
Qu. # argmax over % R (amount retained on screen) for candidates P and Q Let me know the label of the one you choose.
Ans. Q
(Q: 46.8%, P: 29.6%)

###

- Procedure Summary: Particle size distribution by sieve analysis
- Type: physicochemical
- Experimental Context: US Mesh 40 (425 μm)
- Description: USP grade guaifenesin powders GP-A, GP-B, GP-C and GP-D having the respective particle size distributions set forth below, were used in the examples. […] The particle size distribution, bulk density, moisture content and flow properties were measured for each of the compositions of Examples 1-10 and for Comparison Examples C1-C4. […] Particle size distribution was measured by sieve analysis using screens of the indicated mesh sizes. Bulk density was measured using a VanKel cylinder. […]
Property: % CR (cumulative amount retained) (%)

# Compound, Endpoint Unit, % CR (cumulative amount retained)
rows = [
    ("COc1ccccc1OCC(O)CO (single isomer, unassigned) [GP-C, guaifenesin]", "%", 2.0),
]

P. COc1ccccc1OCC(O)CO (single isomer, unassigned) [GP-B, guaifenesin]
Q. COc1ccccc1OCC(O)CO (single isomer, unassigned) [GP-D, guaifenesin]
Qu. Task for the reader: decide whether P or Q has the larger % CR (cumulative amount retained). Please reply using the label of the selected record.
Ans. P
